The measured values listed here are drawn from PubChem BioAssay.

assayed_target: E3 ubiquitin-protein ligase XIAP (Homo sapiens) (UniProt P98170)
Sequence (P98170 whole entry, looked up): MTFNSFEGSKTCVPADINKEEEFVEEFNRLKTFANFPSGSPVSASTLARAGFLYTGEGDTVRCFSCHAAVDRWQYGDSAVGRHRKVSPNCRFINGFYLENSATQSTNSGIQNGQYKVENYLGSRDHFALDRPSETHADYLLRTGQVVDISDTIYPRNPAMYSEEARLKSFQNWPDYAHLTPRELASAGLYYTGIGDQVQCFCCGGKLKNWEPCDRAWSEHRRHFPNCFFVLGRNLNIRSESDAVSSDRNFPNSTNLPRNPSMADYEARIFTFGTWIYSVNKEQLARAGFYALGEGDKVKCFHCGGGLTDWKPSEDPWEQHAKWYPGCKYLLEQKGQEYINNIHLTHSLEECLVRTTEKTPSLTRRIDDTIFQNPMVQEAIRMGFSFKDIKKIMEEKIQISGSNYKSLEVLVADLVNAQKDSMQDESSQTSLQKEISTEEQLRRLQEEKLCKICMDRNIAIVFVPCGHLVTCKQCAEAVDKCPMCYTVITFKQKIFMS
test_protocol: XIAP binders, primary screen, biophysical, small-molecule microarray, fluorescence 635 nm (AID 1181);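 note: score merges 667 nm emission and signal to noise over triplicate slides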
condition_description: small-molecule microarray binding, higher = more signal
outcome_measure: composite z-score
// no unit string in output, number only

Reference set, count: 3
CCc1cccc(NC(=O)O[C@H]2[C@H](OC(=O)Nc3ccccc3-c3ccccc3)[C@H](OC(=O)Nc3ccccc3-c3ccccc3)[C@@H](OC)O[C@@H]2CO)c1    0.146
CC(C)[Si](C#Cc1ccccc1)(O[C@H](c1ccccc1)c1cn(Cc2ccccc2)nn1)C(C)C    -0.516
COC(=O)[C@H](Cc1ccccc1)N1CC(C)(OC)O[C@@H](Cc2ccccc2)[C@H]1/C=C/C1CC1 (some centres undefined)    0.0583

Tell me composite z-score reported for C=CC[C@H](OC(=O)Nc1ccc(SC)cc1)c1ccc(O)c(F)c1
0.0297
